Target system: T1, human CI-M6PR domain1-3His6 (human, UniProt P11717 41-467)
T1 construct: Recombinant, made in HEK293 cells; Biotinylated with NHS-PEG4-biotin for BLI; unlabelled in SEC-MALLS and crystallisation; also called CI-M6PR hDom1-3His6; hDom1-3His6
Assay details: BLI, biotinylated antigen on SA tips, global 1:1 fit, dissociation at pH 7.4
Property: Kd; scope: individual binders
Reported property: Kd

Binder: anti-CI-M6PR VHH8 (VHH, Purified by IMAC, so tagged; Labelled with Alexa Fluor 488 (NHS ester) in the imaging experiments) VHH: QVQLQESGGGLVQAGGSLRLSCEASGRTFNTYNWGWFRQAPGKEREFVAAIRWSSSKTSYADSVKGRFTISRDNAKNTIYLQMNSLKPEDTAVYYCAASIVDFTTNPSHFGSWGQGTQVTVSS
Experimental result: 0.534 nM

Binder: humanized variant VHH8h1 (VHH, Made in E. coli, IMAC purified; tag not specified) VHH: EVQLVESGGGLVQPGGSLRLSCAASGRTFNTYNWGWFRQAPGKEREFVAAIRWSSSKTSYADSVKGRFTISRDNSKNTVYLQMNSLRPEDTAVYYCAASIVDFTTNPSHFGSWGQGTLVTVSS
Experimental result: 1.06 nM

Binder: anti-CI-M6PR VHH7 (VHH, Purified by IMAC, so tagged; Labelled with Alexa Fluor 488 (NHS ester) in the imaging experiments) VHH: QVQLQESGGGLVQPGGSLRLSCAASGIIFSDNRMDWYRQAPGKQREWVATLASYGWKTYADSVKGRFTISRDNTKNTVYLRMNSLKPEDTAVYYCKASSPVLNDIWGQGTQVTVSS
Experimental result: 10.1 nM

Binder: humanized variant VHH8h3 (VHH, Made in E. coli, IMAC purified; tag not specified) VHH: DVQLVESGGGLVQAGGSLRLSCAASGRTFNTYNWGWFRQAPGKEREFVAAIRWSSSKTSYADSVKGRFTISRDNSKNTVYLQMNSLRPEDTAVYYCAASIVDFTTNPSHFGSWGQGTLVTVSS
Experimental result: 1.76 nM
